Here's a batch of compounds along with measured MIC for Staphylococcus aureus SA-1 (UC-76).
readoutName: MIC (µg/mL)

1. C[C@@H]1CN2c3c(cc(-c4cnccn4)c(F)c3F)CC3(C(=O)NC(=O)NC3=O)[C@H]2[C@H](C)O1: 0.125
2. C[C@H]1CN2c3cc(F)c(-c4cnccn4)cc3CC3(C(=O)NC(=O)NC3=O)[C@@H]2[C@@H](C)O1 (relative stereo): 2
3. C[C@@H]1CN2c3c(cc(-c4cnc(N)cn4)c(F)c3F)CC3(C(=O)NC(=O)NC3=O)[C@H]2[C@H](C)O1: 0.5

====

Here's a batch of compounds along with measured MIC for Staphylococcus aureus SA-1 (UC-76).
readoutName: MIC (µg/mL)

1) C[C@@H]1CN2c3c(cc(-c4cnccn4)c(F)c3F)CC3(C(=O)N(CN4CCN(C)CC4)C(=O)N(CN4CCN(C)CC4)C3=O)[C@H]2[C@H](C)O1 [Compound 5]: 0.5
2) C[C@H]1CN2c3c(F)cc(-c4cnccn4)cc3CC3(C(=O)NC(=O)NC3=O)[C@@H]2[C@@H](C)O1 (relative stereo) [Compound 15]: 1
3) Cc1cnc(-c2cc3c(c(F)c2F)N2C[C@@H](C)O[C@@H](C)[C@@H]2C2(C3)C(=O)NC(=O)NC2=O)cn1 [Compound 23]: 0.125
4) CCOc1cnc(-c2cc3c(c(F)c2F)N2C[C@@H](C)O[C@@H](C)[C@@H]2C2(C3)C(=O)NC(=O)NC2=O)cn1 [Compound 26]: 0.25
5) C[C@@H]1CN2c3c(cc(-c4c[n+]([O-])ccn4)c(F)c3F)CC3(C(=O)NC(=O)NC3=O)[C@H]2[C@H](C)O1 [Compound 6]: 0.5
6) C[C@H]1CN2c3ccc(-c4cnccn4)cc3CC3(C(=O)NC(=O)NC3=O)[C@@H]2[C@@H](C)O1 (relative stereo) [Compound 20]: 4
7) COc1cnc(-c2cc3c(c(F)c2F)N2C[C@@H](C)O[C@@H](C)[C@@H]2C2(C3)C(=O)NC(=O)NC2=O)cn1 [Compound 25]: 0.125
8) C[C@@H]1CN2c3c(cc(-c4cnccn4)c(F)c3F)CC3(C(=O)N(CN4CCOCC4)C(=O)N(CN4CCOCC4)C3=O)[C@H]2[C@H](C)O1 [Compound 4]: 0.25
9) COc1nccnc1-c1ccc2c(c1)CC1(C(=O)NC(=O)NC1=O)[C@@H]1[C@@H](C)O[C@@H](C)CN21 (relative stereo) [Compound 21]: 16
